target: His-tagged TetR (Tet repressor) (UniProt P04483); test: competition EMSA
Sequence (P04483 whole entry): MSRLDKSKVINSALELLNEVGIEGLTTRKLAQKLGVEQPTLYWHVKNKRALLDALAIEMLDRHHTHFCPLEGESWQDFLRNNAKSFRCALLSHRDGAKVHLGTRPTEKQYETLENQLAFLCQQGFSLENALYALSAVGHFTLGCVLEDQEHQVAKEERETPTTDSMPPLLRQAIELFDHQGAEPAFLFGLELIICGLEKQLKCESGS
parameter.measured: pKi
In simple prose, pKi is minus the logarithm base ten of a concentration in moles per litre.

Problem: Report pKi for GGGAGAUACGCGUAUCAAGCAGCAUGUUAUGGGUCAUCACAGACCAGAGAAAAGCUUGAUACGCGAAAGGAG [TetR aptamer 12-1R (pDA1), active] please.
Solution: 7.24
